Property: Change; scope: individual compounds
tested on: Canis familiaris; assay: Percent change in FRP from control at active dose 30 mg/kg administered intraperitoneally in anesthetized dogs; type: functional, Canis lupus familiaris; details: route intraperitoneal
property label: Change (%)

>  <compound>
CS(=O)(=O)Nc1ccc(C(=O)NC2CCCCC2NCC(O)COc2ccccc2)cc1 (centres undefined)

>  <result number>
15

$$$$
>  <compound>
CS(=O)(=O)Nc1ccc(N2CCN(CC(O)CON=C(C3CC3)C3CC3)CC2)cc1 (centres undefined)

>  <result number>
15

$$$$
>  <compound>
CS(=O)(=O)Nc1ccc(OCC(O)CNCCNC(=O)c2ccc(-n3ccnc3)cc2)cc1 (centres undefined)

>  <result number>
14

$$$$
>  <compound>
CS(=O)(=O)Nc1ccc(N2CCN(CC(O)COc3ccccc3)CC2)cc1 (centres undefined)

>  <result number>
14

$$$$

* * *

biological target: Beta-1 adrenergic receptor (Canis lupus familiaris); experiment: Tested for beta1-receptor selectivity in canine cardiac tissue in anesthetized dogs

>  <molecule>
OC(CNCCOc1ccc(-n2ccnc2)cc1)COc1ccccc1 (stereo unspecified)

>  <output unit>
µM

>  <IC50>
0.04

$$$$

* * *

tested on: Canis familiaris; assay: Concentration that causes a 20% increase in APD95 (action potential duration at 95% repolarization) from control value in anesthetized dogs; type: functional, Canis lupus familiaris
Entries and their C20 APD95

>  <compound>
CS(=O)(=O)Nc1ccc(OC[C@@H](O)CNCCOc2ccc(-n3ccnc3)cc2)cc1 (stereo in doubt; 1) [ERSENTILIDE]

>  <measurement qualifier>
=

>  <C20 APD95 (µM)>
0.4

$$$$
>  <compound>
CS(=O)(=O)Nc1ccc(C(O)CNCCOc2ccc(-n3ccnc3)cc2)cc1 (stereo not given)

>  <measurement qualifier>
<

>  <C20 APD95 (µM)>
1

$$$$
>  <compound>
COc1ccccc1C(O)CNCCOc1ccc(-n2ccnc2)cc1 (stereo not given)

>  <measurement qualifier>
=

>  <C20 APD95 (µM)>
10.4

$$$$
>  <compound>
OC(CNCCOc1ccc(-n2ccnc2)cc1)CONC(C1CC1)C1CC1 (stereo not given)

>  <measurement qualifier>
=

>  <C20 APD95 (µM)>
1.5

$$$$
>  <compound>
COCCc1ccc(OCC(O)CNCCOc2ccc(-n3ccnc3)cc2)cc1 (stereo not given)

>  <measurement qualifier>
=

>  <C20 APD95 (µM)>
14.8

$$$$

* * *

Property: C20; scope: individual compounds
tested on: Canis familiaris; experiment: Concentration that causes a 20% increase in APD95 (action potential duration at 95% repolarization) from control value in anesthetized dogs; type: functional, Canis lupus familiaris
property label: C20 (µM)

>  <compound>
COCCc1ccc(OCC(O)CNCCNC(=O)c2ccc(-n3ccnc3)cc2)cc1 (stereo unspecified)

>  <output unit>
µM

>  <measurement qualifier>
<

>  <result number>
1.4

$$$$
>  <compound>
O=C(NCCNCC(O)COc1cccc2ccccc12)c1ccc(-n2ccnc2)cc1 (stereo unspecified)

>  <output unit>
µM

>  <measurement qualifier>
=

>  <result number>
1.8

$$$$
>  <compound>
CS(=O)(=O)Nc1ccc(C(=O)N2CCN(CC(O)COc3cccc4ccccc34)CC2)cc1 (stereo unspecified)

>  <output unit>
µM

>  <measurement qualifier>
=

>  <result number>
0.5

$$$$
>  <compound>
CC(C)NCC(O)c1ccc(NS(C)(=O)=O)cc1 (stereo unspecified) [SOTALOL]

>  <output unit>
µM

>  <measurement qualifier>
=

>  <result number>
14.4

$$$$
>  <compound>
CS(=O)(=O)Nc1ccc(OCC(O)CNCc2ccc(-n3ccnc3)cc2)cc1 (stereo unspecified)

>  <output unit>
µM

>  <measurement qualifier>
=

>  <result number>
1.8

$$$$
>  <compound>
CS(=O)(=O)Nc1ccc(N2CCN(CC(O)CON=C(C3CC3)C3CC3)CC2)cc1 (stereo unspecified)

>  <output unit>
µM

>  <measurement qualifier>
=

>  <result number>
8

$$$$
>  <compound>
COCCc1ccc(OCC(O)CNCc2ccc(NS(C)(=O)=O)cc2)cc1 (stereo unspecified)

>  <output unit>
µM

>  <measurement qualifier>
=

>  <result number>
0.5

$$$$
>  <compound>
Cc1cccc(OCC(O)CN2CCN(c3ccc(NS(C)(=O)=O)cc3)CC2)c1 (stereo unspecified)

>  <output unit>
µM

>  <measurement qualifier>
<

>  <result number>
1

$$$$
>  <compound>
CS(=O)(=O)Nc1ccc(C(=O)NCCNCC(O)COc2ccccc2C#N)cc1 (stereo unspecified)

>  <output unit>
µM

>  <measurement qualifier>
=

>  <result number>
23.7

$$$$
>  <compound>
CS(=O)(=O)Nc1ccc(C(=O)N2CCN(CC(O)COc3ccccc3)CC2)cc1 (stereo unspecified)

>  <output unit>
µM

>  <measurement qualifier>
<

>  <result number>
1

$$$$
>  <compound>
COCCc1ccc(OCC(O)CN2CCN(c3ccc(NS(C)(=O)=O)cc3)CC2)cc1 (stereo unspecified)

>  <output unit>
µM

>  <measurement qualifier>
=

>  <result number>
3.2

$$$$
>  <compound>
Cc1ccccc1OCC(O)CNCc1ccc(-n2ccnc2)cc1 (stereo unspecified)

>  <output unit>
µM

>  <measurement qualifier>
=

>  <result number>
0.3

$$$$
>  <compound>
CS(=O)(=O)Nc1ccc(CNCC(O)COc2ccccc2)cc1 (stereo unspecified)

>  <output unit>
µM

>  <measurement qualifier>
<

>  <result number>
1

$$$$
>  <compound>
Cc1ccccc1OCC(O)CN1CCN(c2ccc(NS(C)(=O)=O)cc2)CC1 (stereo unspecified)

>  <output unit>
µM

>  <measurement qualifier>
<

>  <result number>
4.5

$$$$
>  <compound>
CS(=O)(=O)Nc1ccc(C(=O)NCCNCC(O)COc2cccc3ccccc23)cc1 (stereo unspecified)

>  <output unit>
µM

>  <measurement qualifier>
=

>  <result number>
1.1

$$$$
>  <compound>
COc1ccc(OCC(O)CNCCNC(=O)c2ccc(NS(C)(=O)=O)cc2)cc1 (stereo unspecified)

>  <output unit>
µM

>  <measurement qualifier>
=

>  <result number>
0.6

$$$$
>  <compound>
CCN(CC)CCNC(=O)c1ccc(NS(C)(=O)=O)cc1 [SEMATILIDE]

>  <output unit>
µM

>  <measurement qualifier>
=

>  <result number>
4.4

$$$$
>  <compound>
COCCc1ccc(OCC(O)CN2CCN(C(=O)c3ccc(NS(C)(=O)=O)cc3)CC2)cc1 (stereo unspecified)

>  <output unit>
µM

>  <measurement qualifier>
=

>  <result number>
7.7

$$$$
>  <compound>
Cc1cccc(OCC(O)CNCc2ccc(NS(C)(=O)=O)cc2)c1 (stereo unspecified)

>  <output unit>
µM

>  <measurement qualifier>
<

>  <result number>
1

$$$$
>  <compound>
CS(=O)(=O)Nc1ccc(N2CCN(CC(O)COc3ccccc3)CC2)cc1 (stereo unspecified)

>  <output unit>
µM

>  <measurement qualifier>
=

>  <result number>
2.7

$$$$
>  <compound>
COc1ccc(OCC(O)CNCCNC(=O)c2ccc(-n3ccnc3)cc2)cc1 (stereo unspecified)

>  <output unit>
µM

>  <measurement qualifier>
=

>  <result number>
6.6

$$$$

* * *

Below: a set of entries, each annotated with reported log10(IC50).
target: Beta-1 adrenergic receptor (Canis familiaris)
property label: log10(IC50) (log10 of the value in µM)

>  <compound>
CS(=O)(=O)Nc1ccc(OCC(O)CNCc2ccc(-n3ccnc3)cc2)cc1 (stereo not given)

>  <log10(IC50)>
1.52

$$$$
>  <compound>
Cc1cccc(OCC(O)CNCc2ccc(NS(C)(=O)=O)cc2)c1 (stereo not given)

>  <log10(IC50)>
0.38

$$$$
>  <compound>
COCCc1ccc(OCC(O)CNCc2ccc(NS(C)(=O)=O)cc2)cc1 (stereo not given)

>  <log10(IC50)>
0.86

$$$$
>  <compound>
Cc1ccccc1OCC(O)CN1CCN(c2ccc(NS(C)(=O)=O)cc2)CC1 (stereo not given)

>  <log10(IC50)>
0.52

$$$$
>  <compound>
Cc1ccccc1OCC(O)CNCc1ccc(-n2ccnc2)cc1 (stereo not given)

>  <log10(IC50)>
-0.10

$$$$

* * *

Test system Beta-2 adrenergic receptor (Canis lupus familiaris, UniProt P54833), log10 IC50 listed for each of the molecules.
property label: log10 IC50 (log10 of the value in µM)

>  <molecule>
Cc1ccccc1OCC(O)CN1CCN(c2ccc(NS(C)(=O)=O)cc2)CC1 (stereo not given)

>  <property label>
log10 IC50

>  <result number>
0.82

$$$$
>  <molecule>
Cc1cccc(OCC(O)CNCc2ccc(NS(C)(=O)=O)cc2)c1 (stereo not given)

>  <property label>
log10 IC50

>  <result number>
0.64

$$$$
>  <molecule>
Cc1ccccc1OCC(O)CNCc1ccc(-n2ccnc2)cc1 (stereo not given)

>  <property label>
log10 IC50

>  <result number>
0.08

$$$$
>  <molecule>
COCCc1ccc(OCC(O)CNCc2ccc(NS(C)(=O)=O)cc2)cc1 (stereo not given)

>  <property label>
log10 IC50

>  <result number>
1.66

$$$$
>  <molecule>
Cc1cccc(OCC(O)CN2CCN(c3ccc(NS(C)(=O)=O)cc3)CC2)c1 (stereo not given)

>  <property label>
log10 IC50

>  <result number>
1.69

$$$$
